Where these numbers come from: patent US20260226084A1

Test system: HPAF-II cells
Assay: HPAF-II Cell Proliferation Assay
Assay type: cell-based
Conditions: Homo sapiens, HPAF-II, HPAF-II cells; Table 2; read-out: Inhibition of cell proliferation in HPAF-II (IC50 class)
pIC50: −log10 of the molar value.
measurement-name: pIC50

Guide cases for pIC50, answers given:
INSERT INTO assay_data (compound_structure, measurement_name, val) VALUES
  ('Cc1ccc(NC(=O)c2cc(C3CC3)cnn2)cc1-c1ccnc(-c2ccsc2)c1', 'pIC50', '6.30 to 7.00'),
  ('Cc1ncc(NC(=O)c2cc(C(F)(F)F)cnn2)cc1-c1ccnc(-c2ccnc(NC(=O)C3CC3)c2)c1', 'pIC50', '5.00 to 6.00'),
  ('Cc1ccc(NC(=O)c2cc(C3CC3)cnn2)cc1-c1cc(NCCO)nc(-c2ccnc(NC(=O)C3CC3)c2)c1', 'pIC50', '6.30 to 7.00');

Input: Consider the compound CNCC(=O)Nc1cc(-c2cc(-c3cc(NC(=O)c4cc(C(C)(F)F)cnn4)ccc3C)ccn2)ccn1 and give its measured pIC50.
Output: 6.30 to 7.00

Input: Consider the compound Cc1ccc(NC(=O)c2cc(C)c(C)nn2)cc1-c1ccnc(-c2ccnc(NC(=O)C3CC3)c2)c1 and give its measured pIC50.
Output: 5.00 to 6.00

Input: Consider the compound Cc1ccc(NC(=O)c2cc(C3CC3)cnn2)cc1-c1ccnc(-c2ccnc(NC(=O)C3CC3)c2)c1 and give its measured pIC50.
Output: 6.30 to 7.00

Input: Consider the compound Cc1ccc(NC(=O)c2cc(C(F)(F)F)cnn2)cc1-c1ccnc(-c2ccnc(NC=O)c2)c1 and give its measured pIC50.
Output: > 7.00

----------
Test system: MiaPaca-2 cells
Assay: MiaPaca-2 Cell Proliferation Assay
Format: cell-based
Conditions: Homo sapiens, MIA PaCa-2, Table 3; read-out: MiaPaca-2 (IC50 class)
pIC50: −log10 of the molar value.
measurement-name: pIC50

INSERT INTO results (compound_structure, measurement_name, val) VALUES
  ('Cc1ccc(NC(=O)c2cnc(C(F)(F)F)nc2)cc1-c1ccnc(-c2ccnc(NC(=O)C3CC3)c2)c1', 'pIC50', '6.30 to 7.00');

Alright, here's another compound for you.
Input: Consider the compound Cc1ccc(NC(=O)c2cc(C(C)(F)F)cnn2)cc1-c1ccnc(-c2ccnc(NC(=O)C3CC3)c2)c1 and give its measured pIC50.
Output: > 7.00

----------
Target: B-Raf kinase (SEQ ID NO: 1) (Homo sapiens)
Construct: GST (N); purchased Sigma
Sequence (P15056 416-766): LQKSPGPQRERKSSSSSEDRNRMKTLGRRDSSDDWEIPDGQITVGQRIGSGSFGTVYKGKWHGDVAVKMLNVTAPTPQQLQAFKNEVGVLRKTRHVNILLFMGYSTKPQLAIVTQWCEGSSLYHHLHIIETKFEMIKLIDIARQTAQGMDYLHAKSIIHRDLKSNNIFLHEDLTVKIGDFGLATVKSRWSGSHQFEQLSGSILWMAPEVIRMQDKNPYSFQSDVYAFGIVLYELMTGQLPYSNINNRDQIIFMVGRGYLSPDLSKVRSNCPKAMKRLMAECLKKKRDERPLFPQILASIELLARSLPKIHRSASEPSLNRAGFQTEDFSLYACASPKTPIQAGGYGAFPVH
Assay: Biochemical Assay for B-Raf (coupled pyruvate kinase/lactate dehydrogenase assay)
Details: 1 mM ATP; read-out: BRAF (inhibition of biochemical activity, IC50)
pIC50: −log10 of the molar value.
Known pIC50 of a selection of molecules

Input: Consider the molecule Cc1cc(F)c(NC(=O)c2cc(C(F)(F)F)cnn2)cc1-c1ccnc(-c2ccnc(NC(=O)C3CC3)c2)c1 and give its measured pIC50.
Output: > 7.00

Input: Consider the molecule COC(=O)Nc1cc(-c2cc(-c3cc(NC(=O)c4ccc(C(F)(F)F)nc4)ccc3C)cc(OCCO)n2)ccn1 and give its measured pIC50.
Output: > 7.00

Input: Consider the molecule Cc1ccc(NC(=O)c2cc(C(C)(C)F)cnn2)cc1-c1ccnc(-c2ccnc(NC(=O)C3CC3)c2)c1 and give its measured pIC50.
Output: > 7.00

Input: Consider the molecule COCC(=O)Nc1cc(-c2cncc(-c3cc(NC(=O)c4ccc(C(F)F)nc4)ccc3C)n2)ccn1 and give its measured pIC50.
Output: 5.00 to 6.00

Input: Consider the molecule Cc1ccc(NC(=N)c2cc(C3CC3)cnn2)cc1-c1ccnc(-c2ccnc(NC(=O)C3CC3)c2)c1 and give its measured pIC50.
Output: > 7.00

----------
Test system: MiaPaca-2 cells
Assay: MiaPaca-2 Cell Proliferation Assay
Type: cell-based
Conditions: Homo sapiens, MIA PaCa-2, MiaPaca-2 cells; Table 2; read-out: Inhibition of cell proliferation in MiaPaca-2 (IC50 class)
pIC50: −log10 of the molar value.
measurement-name: pIC50

Guide cases for pIC50, answers given:
INSERT INTO measurements (compound, measurement_name, val) VALUES
  ('Cc1ccc(NC(=O)c2cc(C(C)(F)F)cnn2)cc1-c1cncc(-c2cc(NC(=O)C3CC3)ncn2)c1 [Example 63]', 'pIC50', '6.30 to 7.00'),
  ('Cc1ccc(NC(=O)c2cncc(C(C)(F)F)c2)cc1-c1cncc(-c2cc(NC(=O)C3CC3)ncn2)c1 [Example 109]', 'pIC50', '6.30 to 7.00'),
  ('Cc1ccc(NC(=O)c2ccc(C(F)F)nc2)cc1-c1ccnc(-c2ccnc(NC(=O)C3CC3)c2)n1 [Example 70]', 'pIC50', '6.30 to 7.00'),
  ('Cc1ccc(NC(=O)c2ccc(C(F)(F)F)nc2)cc1-c1cncc(-c2cc(N)ncn2)c1 [Example 73]', 'pIC50', '5.00 to 6.00');

Input: Consider the compound Cc1ccc(NC(=O)c2cc(C(F)(F)F)cnn2)cc1-c1cc(N[C@H](C)CO)nc(-c2ccnc(NC(=O)C3CC3)c2)c1 [Example 45] and give its measured pIC50.
Output: 6.30 to 7.00

----------
Known IC50 of a selection of molecules
System: Pa16c cells
Experiment: Pa16c Cell Proliferation Assay
Assay type: cell-based
Conditions: Table 2, read-out: Inhibition of cell proliferation in Pa16c (IC50 class)

Input: Consider the molecule Cc1ccc(NC(=O)c2ccc(C(F)(F)F)nc2)cc1-c1ccnc(-c2ccnc(NC(=O)C3CC3)c2)c1 and give its measured IC50.
Output: 100 to 500 nM

Input: Consider the molecule Cc1ccc(NC(=O)c2cc(C(F)(F)F)cnn2)cc1-c1cc(OCCO)nc(-c2cn[nH]c2)c1 and give its measured IC50.
Output: < 100 nM

Input: Consider the molecule Cc1ccc(NC(=O)c2cc(C3CC3)cnn2)cc1-c1cc(NCCO)nc(-c2ccnc(NC(=O)C3CC3)c2)n1 and give its measured IC50.
Output: 1000 to 10000 nM

Input: Consider the molecule Cc1ccc(NC(=O)c2cc(C(C)C)cnn2)cc1-c1cncc(-c2cc(NC(=O)C3CC3)ncn2)c1 and give its measured IC50.
Output: 100 to 500 nM

Input: Consider the molecule Cc1ccc(NC(=O)c2ccc(C(C)(F)F)nc2)cc1-c1ccnc(-c2ccnc(NC(=O)C3CC3)c2)c1 and give its measured IC50.
Output: 100 to 500 nM

Input: Consider the molecule Cc1ccc(NC(=O)c2cc(C3CC3)cnn2)cc1-c1cc(-c2ccnc(NC(=O)C3CC3)c2)nc(NCCO)n1 and give its measured IC50.
Output: 1000 to 10000 nM

Input: Consider the molecule Cc1ccc(NC(=O)c2cc(C(F)(F)F)cnn2)cc1-c1ccnc(-c2ccnc(NC(C)C)c2)c1 and give its measured IC50.
Output: 100 to 500 nM

----------
Tested on: HPAF-II cells
Test: HPAF-II Cell Proliferation Assay
Format: cell-based
Conditions: Homo sapiens, HPAF-II, HPAF-II cells; Table 2; read-out: Inhibition of cell proliferation in HPAF-II (IC50 class)
Protocol: HPAF-II cells (catalog #CRL-1997) are obtained from the American Type Culture Collect (ATCC, Manassas, VA). […] Plates are read on a Synergy2 or equivalent reader (Biotek, Winooski, VT) using an excitation of 540 nm and an emission of 600 nm. Data is analyzed using Prism software (Graphpad, San Diego, CA) to calculate IC50 values.
pIC50: −log10 of the molar value.
Known pIC50 of a selection of compounds

INSERT INTO assay_data (compound_structure, target_or_system, measurement_name, val) VALUES
  ('CCNc1cc(-c2cc(-c3cc(NC(=O)c4cc(C(F)(F)F)cnn4)ccc3C)ccn2)ccn1', 'HPAF-II cells', 'pIC50', '6.30 to 7.00'),
  ('Cc1ccc(NC(=O)c2cnc(C(F)(F)F)nc2)cc1-c1cc(N[C@H](C)CO)nc(-c2cn[nH]c2)c1', 'HPAF-II cells', 'pIC50', '5.00 to 6.00'),
  ('CONc1cc(-c2cc(-c3cc(NC(=O)c4cc(C(F)(F)F)cnn4)ccc3C)ccn2)ccn1', 'HPAF-II cells', 'pIC50', '6.30 to 7.00'),
  ('Cc1ccc(NC(=O)c2cnc(C(F)(F)F)nc2)cc1-c1ccnc(-c2ccnc(NC(=O)C3CC3)c2)c1', 'HPAF-II cells', 'pIC50', '> 7.00'),
  ('Cc1ccc(NC(=O)c2cncc(C(C)(F)F)c2)cc1-c1ccnc(-c2ccnc(NC(=O)C3CC3)c2)c1', 'HPAF-II cells', 'pIC50', '6.00 to 6.30'),
  ('Cc1ccc(NC(=O)c2cc(OC(F)F)cnn2)cc1-c1ccnc(-c2ccnc(NC(=O)C3CC3)c2)c1', 'HPAF-II cells', 'pIC50', '5.00 to 6.00');

Input: Consider the compound Cc1ccc(NC(=O)c2cc(C(C)(F)F)cnn2)cc1-c1cc(N[C@H](C)CO)nc(-c2cn[nH]c2)c1 and give its measured pIC50.
Output: 6.30 to 7.00

Input: Consider the compound Cc1ccc(NC(=O)c2ccc(C(F)F)nn2)cc1-c1ccnc(-c2ccnc(NC(=O)C3CC3)c2)c1 and give its measured pIC50.
Output: 6.30 to 7.00

Input: Consider the compound Cc1ccc(NC(=O)c2cncc(C(C)(C)C#N)c2)cc1-c1cncc(-c2ccnc(NC(=O)C3CC3)c2)n1 and give its measured pIC50.
Output: 6.30 to 7.00

Input: Consider the compound Cc1ccc(NC(=O)c2cccnn2)cc1-c1ccnc(-c2ccnc(NC(=O)C3CC3)c2)c1 and give its measured pIC50.
Output: 5.00 to 6.00
